The reported measurements were obtained from patent US10471046B2.

Tested on: S. aureus
Assay: Minimum inhibitory concentrations (MICs) for S. aureus of exemplary compounds (Table 2)
Assay type: cell-based
Conditions: Staphylococcus aureus, minimum inhibitory concentrations for S. aureus; read-out: MICs
Please assign 0 (no) whenever MIC is at or above 4 µg/mL, and 1 (yes) whenever it is below.

# count of solved cases: 3
CC(=O)NC[C@H]1CN(c2ccc(-c3ccc(CNCc4cccnc4)cc3)c(F)c2)C(=O)O1: 1 (yes)
CC(=O)NC[C@H]1CN(c2ccc(-c3ccc(CNCc4ccc(-c5ccccc5)s4)cc3)c(F)c2)C(=O)O1: 0 (no)
CC(=O)NC[C@H]1CN(c2ccc(-c3ccc(CN(C)Cc4ccccn4)cc3)c(F)c2)C(=O)O1: 1 (yes)

[in] Determine whether this compound shows MIC lower than 4 µg/mL (ties excluded): CC(=O)NC[C@H]1CN(c2ccc(-c3ccc(C(=O)NCc4ccncc4)nc3)c(F)c2)C(=O)O1
[out] 1 (yes)

[in] Hello, I'm reviewing records and need to know if MIC of CC(=O)NC[C@H]1CN(c2ccc(-c3ccc(CNCc4cccnc4N4CCOCC4)cc3)c(F)c2)C(=O)O1 is below 4 µg/mL. Could you check?
[out] 0 (no)

[in] Criterion: MIC strictly below 4 µg/mL. Is it met by CC(=O)NC[C@H]1CN(c2ccc(-c3ccc(CNCc4ccc(C)o4)cc3)c(F)c2)C(=O)O1 ?
[out] 1 (yes)

###

Assay: Approximate solubility in solvents by aliquot addition
Format: physicochemical
Conditions: HFIPA/dioxane (9:1), organic solvent or mixture, thermodynamic from solid, Table 11: HFIPA/Dioxane (9:1)
Structures can show the parent of a compound that is named as a salt.
measure: solubility

[in] Would you kindly share the measured solubility for CC(=O)NC[C@H]1CN(c2ccc(-c3ccc(CNCc4cnn[nH]4)cc3)c(F)c2)C(=O)O1 [Hydrochloride] ?
[out] ≥ 52 mg/mL

###

Test system: S. aureus
Experiment: Minimum inhibitory concentrations (MICs) for S. aureus of exemplary compounds (Table 2)
Assay type: cell-based
Details: Staphylococcus aureus, minimum inhibitory concentrations for S. aureus; read-out: MICs
measure: MIC (µg/mL)
Numbers only, in µg/mL.

Worked cases, MIC given:
COc1cc(CN(C)Cc2ccncc2)ccc1-c1ccc(N2C[C@H](CNC(C)=O)OC2=O)cc1F [Compound 4033]: 8
CC(=O)NC[C@H]1CN(c2ccc(-c3ccc(CNC(=O)c4cccc(S(C)(=O)=O)c4)cc3)c(F)c2)C(=O)O1 [Compound 4012]: 4
O=C1O[C@@H](Cn2ccnn2)CN1c1ccc(-c2ccc(Cn3ccnc3)cc2)c(F)c1 [Compound 1084]: 0.25

I have 3 compounds here; please give me MIC for each one.
1. CC(=O)NC[C@H]1CN(c2ccc(-c3ccc(CNNC(=O)c4ccncc4)cc3)c(F)c2)C(=O)O1 [Compound 4236]
2. CC(=O)NC[C@H]1CN(c2ccc(-c3ccc([C@H](CO)N4CCN(C=O)CC4)cc3)c(F)c2)C(=O)O1 [Compound 1045]
3. CC(=O)NC[C@H]1CN(c2ccc(-c3ccc(CN(Cc4c[nH]cn4)Cc4cnc[nH]4)cc3)c(F)c2)C(=O)O1 [Compound 4068]

[out]
0.25
0.5
128

[in] Recorded MIC for CC(=O)NC[C@H]1CN(c2ccc(-c3ccc(CNC(=O)[C@@H](N)Cc4ccccn4)cc3)c(F)c2)C(=O)O1 [Compound 4302] , please?
[out] 8
